TARGET: SVCT1 (Homo sapiens, UniProt Q9UHI7)
Construct: gene SLC23A1
Sequence (Q9UHI7 whole entry): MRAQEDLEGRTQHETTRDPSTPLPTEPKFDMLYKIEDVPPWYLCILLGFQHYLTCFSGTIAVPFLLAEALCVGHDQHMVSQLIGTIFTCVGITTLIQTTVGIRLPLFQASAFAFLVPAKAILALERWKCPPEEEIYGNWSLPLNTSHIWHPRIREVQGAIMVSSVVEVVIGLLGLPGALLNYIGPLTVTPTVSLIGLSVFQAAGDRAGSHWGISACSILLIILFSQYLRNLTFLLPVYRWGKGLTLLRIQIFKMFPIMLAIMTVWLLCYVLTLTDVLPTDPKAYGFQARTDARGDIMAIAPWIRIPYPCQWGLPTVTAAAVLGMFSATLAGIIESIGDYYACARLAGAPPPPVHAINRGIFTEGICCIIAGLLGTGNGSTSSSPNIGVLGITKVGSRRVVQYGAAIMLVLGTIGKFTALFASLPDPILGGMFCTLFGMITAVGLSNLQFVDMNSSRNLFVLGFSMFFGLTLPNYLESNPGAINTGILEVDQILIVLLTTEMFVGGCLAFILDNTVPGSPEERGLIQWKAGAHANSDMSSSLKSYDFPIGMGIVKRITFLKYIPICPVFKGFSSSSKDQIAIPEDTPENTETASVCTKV
ASSAY NAME: inhibition of […]-vitamin C uptake in SVCT1-expressing […] cells (urate uptake IC50 […])
Assay type: cell-based
VALUE TYPE: IC50 (µM)
Write the number in µM without appending the unit.

Answer with the recorded IC50 for the compound listed here: CCc1oc2ccccc2c1C(=O)c1cc(Br)c(O)c(Br)c1
8.39

----------
TARGET: SVCT1 (Homo sapiens)
Construct: gene SLC23A1
ASSAY NAME: inhibition of […]-vitamin C uptake in SVCT1-expressing […] cells (urate uptake IC50 […])
Type: cell-based
VALUE TYPE: IC50 (nM)
Write the number in nM without appending the unit.

Answer with the recorded IC50 for the compound listed here: CCc1oc2cc(O)ccc2c1C(=O)c1cc(Br)c(O)c(Br)c1 [6-OH BBR, 6-hydroxybenzbromarone]
2860
